# Tested on: Yap1 mRNA
# assay name: Antisense inhibition of human Yap1 in A-431 cells by cEt gapmers, single dose (Example 2, RTS4814)
# Format: cell-based
# conditions: Table 6; A-431 cells, 5,000 cells per well, free uptake, 2,000 nM modified oligonucleotide, approx. 48 hours; RTS4814; normalized to RIBOGREEN; Yap1 mRNA relative to untreated control cells
Strand notation (5' to 3'): a small letter for the sugar, then the base; units joined by * are phosphorothioate-linked, units joined directly phosphodiester-linked; [ ] holds rarer units or linkages, { } end groups; capitals alone tell only the bases. k = constrained ethyl (cEt); [5mC] = 5-methylcytosine; d = 2'-deoxy (DNA)
Documented YAP1 (% UTC) across a set of substances
Number first, unit second.

For orientation, consider the following solved cases.
substance | experimental value
716561 (kA*kA*kG*dG*dT*dA*dT*dT*dA*d[5mC]*dA*dT*dA*kA*kG*kA; antisense) [Compound 716561] | 58 % UTC
716381 (kT*kG*kT*d[5mC]*dT*dG*dA*dT*d[5mC]*dG*dA*dT*dG*kT*kG*kA; antisense) [Compound 716381] | 35 % UTC
716423 (kG*k[5mC]*kA*dA*dA*dA*dT*dA*dG*dA*dG*dG*dA*kT*kT*kA; antisense) [Compound 716423] | 43 % UTC

Just so you know, measured YAP1 (% UTC) for 716480 (kG*k[5mC]*kA*dA*dG*dT*d[5mC]*dT*dT*dG*dT*dA*dA*kG*kT*kA; antisense) [Compound 716480] came out at 18 % UTC
